Tested on: rodent lifetime carcinogenesis bioassay, tumor incidence TD50
ASSAY NOTES: carcinogenic potency in animals, long-term in vivo studies, CPDB compilation (AID 1745844)
CONDITION SUMMARY: mouse; strain Swiss albino; males; in drinking water; site: bile duct; lesion: cholangioma; dosed 82 weeks; study length 82 weeks
VALUE TYPE: TD50

Entry under review: CN(N)C=O . Reported TD50?
12.4 mg/kg/day

###

Test system: rodent lifetime carcinogenesis bioassay, tumor incidence TD50
ASSAY NOTES: carcinogenic potency in animals, long-term in vivo studies, CPDB compilation (AID 1745844)
CONDITION SUMMARY: mouse; strain B6C3F1; males; inhaled; site: lung; lesion: alveolar/bronchiolar adenoma + alveolar/bronchiolar carcinoma; dosed 40 weeks; study length 104 weeks
VALUE TYPE: TD50 (mg/kg/day)
Answers are plain numbers, in mg/kg/day.

Entry under review: C=CC=C . Reported TD50?
11

###

Test system: rodent lifetime carcinogenesis bioassay, tumor incidence TD50
ASSAY NOTES: carcinogenic potency in animals, long-term in vivo studies, CPDB compilation (AID 1745844)
CONDITION SUMMARY: rat; strain SK&F Wistar; males; by gavage; site: gastric mucosa; lesion: carcinoid tumor, malignant; dosed 100 weeks; study length 100 weeks
VALUE TYPE: TD50

Entry under review: Cc1ccc(Cc2cnc(NCCSCc3ccc(CN(C)C)o3)[nH]c2=O)cn1 . Reported TD50?
3830 mg/kg/day

###

Test system: rodent lifetime carcinogenesis bioassay, tumor incidence TD50
ASSAY NOTES: carcinogenic potency in animals, long-term in vivo studies, CPDB compilation (AID 1745844)
CONDITION SUMMARY: mouse; strain B6C3F1; males; in feed; site: lung; lesion: several types; types named in the paper; dosed 81 weeks; study length 81 weeks
VALUE TYPE: TD50
Number first, unit second.

[
  {
    "STRUCTURE NOTATION": "Cc1ccc2ccccc2c1",
    "TD50": "205 mg/kg/day"
  }
]

Query the reported TD50 for rodent lifetime carcinogenesis bioassay, tumor incidence TD50; item: Cc1cccc2ccccc12
201 mg/kg/day

###

Tested on: rodent lifetime carcinogenesis bioassay, tumor incidence TD50
ASSAY NOTES: carcinogenic potency in animals, long-term in vivo studies, CPDB compilation (AID 1745844)
CONDITION SUMMARY: rat; strain Wistar; males; in feed; site: forestomach; lesion: several types; types named in the paper; dosed 52 weeks; study length 52 weeks
VALUE TYPE: TD50 (mg/kg/day)
Give bare numbers, in mg/kg/day.

Entry under review: O=P(O)(OCC(Br)CBr)OCC(Br)CBr (stereo unspecified) . Reported TD50?
38.1

###

Test system: rodent lifetime carcinogenesis bioassay, tumor incidence TD50
ASSAY NOTES: carcinogenic potency in animals, long-term in vivo studies, CPDB compilation (AID 1745844)
CONDITION SUMMARY: monkey; strain Cynomolgus [Macaca fascicularis]; both sexes; in feed; site: any site (literature study); lesion: benign tumor; dosed 928 weeks; study length 1135 weeks
VALUE TYPE: TD50 (mg/kg/day)
Give bare numbers, in mg/kg/day.

Entry under review: CN(N=O)C(N)=O . Reported TD50?
19.1

###

System: rodent lifetime carcinogenesis bioassay, tumor incidence TD50
ASSAY NOTES: carcinogenic potency in animals, long-term in vivo studies, CPDB compilation (AID 1745844)
CONDITION SUMMARY: mouse; strain Swiss; females; by gavage; site: lung; lesion: several types; types named in the paper; dosed 52 weeks; study length 122 weeks
VALUE TYPE: TD50

Entry under review: CCCCC/C=N/N(C)C=O . Reported TD50?
2.96 mg/kg/day

###

System: rodent lifetime carcinogenesis bioassay, tumor incidence TD50
ASSAY NOTES: carcinogenic potency in animals, long-term in vivo studies, CPDB compilation (AID 1745844)
CONDITION SUMMARY: rat; strain Fischer 344; females; in feed; site: urinary bladder; lesion: transitional-cell carcinoma; dosed 103 weeks; study length 105 weeks
VALUE TYPE: TD50

Entry under review: Nc1ccc(O)c([N+](=O)[O-])c1 . Reported TD50?
1880 mg/kg/day

###

System: rodent lifetime carcinogenesis bioassay, tumor incidence TD50
ASSAY NOTES: carcinogenic potency in animals, long-term in vivo studies, CPDB compilation (AID 1745844)
CONDITION SUMMARY: rat; strain F344/DuCrj; females; in drinking water; site: all sites; lesion: several types; types named in the paper; dosed 50 weeks; study length 50 weeks
VALUE TYPE: TD50

Entry under review: CCCCN(N=O)C(N)=O . Reported TD50?
24.7 mg/kg/day

###

Test system: rodent lifetime carcinogenesis bioassay, tumor incidence TD50
ASSAY NOTES: carcinogenic potency in animals, long-term in vivo studies, CPDB compilation (AID 1745844)
CONDITION SUMMARY: mouse; strain B6C3F1; females; in feed; site: any site (literature study); lesion: several types; types named in the paper; dosed 49 weeks; study length 49 weeks
VALUE TYPE: TD50 (mg/kg/day)
Numbers only, in mg/kg/day.

Entry under review: Cc1ccc2c(c1[N+](=O)[O-])C(=O)c1ccccc1C2=O . Reported TD50?
1.76

###

System: rodent lifetime carcinogenesis bioassay, tumor incidence TD50
ASSAY NOTES: carcinogenic potency in animals, long-term in vivo studies, CPDB compilation (AID 1745844)
CONDITION SUMMARY: mouse; strain Charles River CD1; males; inhaled; site: lung; lesion: squamous-cell carcinoma; dosed 104 weeks; study length 104 weeks
VALUE TYPE: TD50
Number first, unit second.

Entry under review: C=COC(C)=O . Reported TD50?
32000 mg/kg/day

###

Test system: rodent lifetime carcinogenesis bioassay, tumor incidence TD50
ASSAY NOTES: carcinogenic potency in animals, long-term in vivo studies, CPDB compilation (AID 1745844)
CONDITION SUMMARY: rat; strain Fischer 344; males; by gavage; site: lip + palate + tongue; lesion: squamous-cell carcinoma; dosed 94 weeks; study length 104 weeks
VALUE TYPE: TD50

Entry under review: CC(C)=CCl . Reported TD50?
178 mg/kg/day

###

Test system: rodent lifetime carcinogenesis bioassay, tumor incidence TD50
ASSAY NOTES: carcinogenic potency in animals, long-term in vivo studies, CPDB compilation (AID 1745844)
CONDITION SUMMARY: rat; strain Charles River CD (Sprague-Dawley); females; in feed; site: liver; lesion: Kupffer-cell sarcoma; dosed 142 weeks; study length 142 weeks
VALUE TYPE: TD50 (mg/kg/day)
Numbers only, in mg/kg/day.

Query the reported TD50 for rodent lifetime carcinogenesis bioassay, tumor incidence TD50; item: Cc1ccccc1S(N)(=O)=O
8520

###

System: rodent lifetime carcinogenesis bioassay, tumor incidence TD50
ASSAY NOTES: carcinogenic potency in animals, long-term in vivo studies, CPDB compilation (AID 1745844)
CONDITION SUMMARY: mouse; strain B6C3F1; males; in feed; site: liver; lesion: hepatocellular adenoma + hepatocellular carcinoma + neoplastic nodule; dosed 103 weeks; study length 109 weeks
VALUE TYPE: TD50 (mg/kg/day)
Give bare numbers, in mg/kg/day.

Entry under review: NCCCCCCCCCCC(=O)O . Reported TD50?
6250

###

Test system: rodent lifetime carcinogenesis bioassay, tumor incidence TD50
ASSAY NOTES: carcinogenic potency in animals, long-term in vivo studies, CPDB compilation (AID 1745844)
CONDITION SUMMARY: mouse; strain B6C3F1; females; in drinking water; site: liver; lesion: several types; types named in the paper; dosed 85 weeks; study length 85 weeks
VALUE TYPE: TD50 (mg/kg/day)
Numbers only, in mg/kg/day.

Query the reported TD50 for rodent lifetime carcinogenesis bioassay, tumor incidence TD50; item: [O-][Cl+]O
3060

###

Test system: rodent lifetime carcinogenesis bioassay, tumor incidence TD50
ASSAY NOTES: carcinogenic potency in animals, long-term in vivo studies, CPDB compilation (AID 1745844)
CONDITION SUMMARY: hamster; strain Syrian Golden; males; in drinking water; site: liver; lesion: angiosarcoma; dosed 31 weeks; study length 96 weeks
VALUE TYPE: TD50 (mg/kg/day)
Answers are plain numbers, in mg/kg/day.

Query the reported TD50 for rodent lifetime carcinogenesis bioassay, tumor incidence TD50; item: O=NN1CCCC1c1cccnc1 (stereo unspecified)
34.4

###

Test system: rodent lifetime carcinogenesis bioassay, tumor incidence TD50
ASSAY NOTES: carcinogenic potency in animals, long-term in vivo studies, CPDB compilation (AID 1745844)
CONDITION SUMMARY: rat; strain F344/DuCrj; males; in feed; site: urinary bladder; lesion: transitional-cell carcinoma; dosed 104 weeks; study length 104 weeks
VALUE TYPE: TD50

Entry under review: O=c1cc[nH]c(=O)[nH]1 . Reported TD50?
357 mg/kg/day

###

Test system: rodent lifetime carcinogenesis bioassay, tumor incidence TD50
ASSAY NOTES: carcinogenic potency in animals, long-term in vivo studies, CPDB compilation (AID 1745844)
CONDITION SUMMARY: rat; strain Fischer 344; males; in feed; site: adrenal medulla; lesion: pheochromocytoma benign, bilateral + pheochromocytoma, benign; dosed 99 weeks; study length 103 weeks
VALUE TYPE: TD50

Entry under review: CCC1(c2ccccc2)C(=O)NCNC1=O . Reported TD50?
20.8 mg/kg/day
